Measured values drawn from PubChem BioAssay (NCI) for this set.

System: CAKI-1 renal
Assay: NCI tumour cell line growth inhibition, 48 h; in the data active = GI50 below about 0.43 µM; inactive = the rest
Outcomes: yes (1) for active, no (0) for inactive

>  <COMPOUND>
CCN(CC)CCOc1ccc(C(=C(C)c2ccc(Cl)cc2)c2ccc(OCCN(CC)CC)cc2)cc1

>  <CLASS LABEL>
no (0)

$$$$
>  <COMPOUND>
COc1cc2c(cc1OC)-c1ccc3cc4c(cc3c1N(CCN1CCCC1)C2)OCO4

>  <CLASS LABEL>
no (0)

$$$$
>  <COMPOUND>
COc1cc2cc(Oc3ccc(NC(=O)Nc4ccc(Cl)c(C(F)(F)F)c4)cc3)c(C)nc2cc1OCCN1CCCCC1

>  <CLASS LABEL>
no (0)

$$$$
>  <COMPOUND>
Nc1nc(/C=C\c2ccc([N+](=O)[O-])o2)nc(N2CCN(c3ccccc3)CC2)n1

>  <CLASS LABEL>
no (0)

$$$$
>  <COMPOUND>
CC12CCC=CC1CCC1C2CCC2(C)C(c3ccc(=O)oc3)CCC12O (stereo not drawn)

>  <CLASS LABEL>
yes (1)

$$$$
>  <COMPOUND>
CC1=C(C(=O)OCc2ccccc2)C(c2ccc3c(c2)OCO3)n2c(nc3ccccc32)N1 (stereo not drawn)

>  <CLASS LABEL>
yes (1)

$$$$
>  <COMPOUND>
Fc1ccc2[nH]cc(Cc3c[nH]c4ccc(F)cc34)c2c1

>  <CLASS LABEL>
no (0)

$$$$
>  <COMPOUND>
O=C(CCl)c1ccc([N+](=O)[O-])o1

>  <CLASS LABEL>
no (0)

$$$$
>  <COMPOUND>
CN(C)CCNC(=O)c1cccn2c(=O)c3cc4ccccc4cc3nc12

>  <CLASS LABEL>
yes (1)

$$$$
>  <COMPOUND>
COc1cc2nc(Cl)nc(Nc3cccc(C(=O)/C=C/c4ccccc4)c3)c2cc1OC

>  <CLASS LABEL>
no (0)

$$$$
>  <COMPOUND>
CN(C)c1ccc2nc3ccc(=[N+](C)C)cc-3oc2c1

>  <CLASS LABEL>
no (0)

$$$$
>  <COMPOUND>
COc1ccc(-c2ccc(-c3ccc(C(=N)N)nc3)s2)cc1

>  <CLASS LABEL>
no (0)

$$$$
>  <COMPOUND>
CC[C@H](Nc1nc(N)nc(C)c1C#N)c1nc2cccc(CN(C)c3ncc(C(=O)NO)cn3)c2c(=O)n1-c1ccccc1

>  <CLASS LABEL>
no (0)

$$$$
>  <COMPOUND>
N#Cc1ncc(/N=C/c2ccc(N(CCCl)CCCl)cc2)s1

>  <CLASS LABEL>
no (0)

$$$$
>  <COMPOUND>
O=S(=O)(c1ccc(NC(=S)NCc2cccnc2)cc1)N1CCCCC1

>  <CLASS LABEL>
no (0)

$$$$
>  <COMPOUND>
Cc1ccc2[nH]c(C(=O)NN3C(=O)CSC34CCCCC4C)c(-c3ccccc3)c2c1 (stereo not drawn)

>  <CLASS LABEL>
no (0)

$$$$
>  <COMPOUND>
CN(C)CCCNC(=O)c1cc(NC(=O)CCNS(=O)(=O)c2ccc3c(c2)C(=O)c2ccccc2C3=O)cn1C

>  <CLASS LABEL>
no (0)

$$$$
>  <COMPOUND>
COc1ccc(C(=O)/C=C/c2ccc(Cl)cc2)cc1S(=O)(=O)Nc1c(N)nc(SC)[nH]c1=O

>  <CLASS LABEL>
no (0)

$$$$
